Measured cytotoxicity at 10 µM by item
- test-description: Toxicity liver stage against HepG2, at 10uM
- Format: cell-based
- Parameters: test concentration 10 uM, cell line HepG2-A16-CD81EGFP
- study-conditions: human, HepG2-A16-CD81EGFP cells; read-out: INHIBITION
Give the quantity in %, number only.

> print(dat)
                                   molecule             value.type  obs.value
1  Cc1nsc(NC2CCN(c3ccccc3OC(F)F)C2=O)n1 (stereo not given)  cytotoxicity at 10 µM       2.14

Q. Could you share which cytotoxicity at 10 µM value was measured for CN(C)C(=O)COCC1CN(Cc2ccco2)Cc2ncn(C)c21 (stereo not given) ?
A. -7.86

Q. Could you share which cytotoxicity at 10 µM value was measured for CS(=O)(=O)CCC(=O)Nc1cc(F)ccc1OCC1CCCO1 (stereo not given) ?
A. 3.41

Q. Could you share which cytotoxicity at 10 µM value was measured for CCc1noc(CN2CCCN(C(N)=O)CC2)n1 ?
A. -4.12

Q. Could you share which cytotoxicity at 10 µM value was measured for O=C(c1ccn(-c2ccccc2Cl)n1)N1CCSCC1 ?
A. 15.6

Q. Could you share which cytotoxicity at 10 µM value was measured for CCOC(=O)N1CCN(C(=O)c2cc(-c3ccc(C)cc3)on2)CC1 ?
A. 5.68

Q. Could you share which cytotoxicity at 10 µM value was measured for CCC(NC(=O)c1cccc2[nH]ccc12)C(=O)N1CCOCC1 (stereo not given) ?
A. -4.1

Q. Could you share which cytotoxicity at 10 µM value was measured for OCCOCCN1CCCC1c1cccc(Cl)c1 (stereo not given) ?
A. -1.78

Q. Could you share which cytotoxicity at 10 µM value was measured for CC(C)CN(Cc1ccc(-n2cncn2)cc1)Cc1ccccn1 ?
A. 8.57

Q. Could you share which cytotoxicity at 10 µM value was measured for Cc1cccc(N(C)S(=O)(=O)c2cc(C(=O)O)cs2)c1 ?
A. -6.12

Q. Could you share which cytotoxicity at 10 µM value was measured for CC(=O)c1cccc(CN2CC(Oc3ccccc3C)C2)c1 ?
A. -4.16

Q. Could you share which cytotoxicity at 10 µM value was measured for c1ccc(COc2cccc(CNC3CCc4ncnn4C3)c2)cc1 (stereo not given) ?
A. -13.7

Q. Could you share which cytotoxicity at 10 µM value was measured for OC(CNC1CCOCC1)c1cccc(OCc2ccccc2)c1 (stereo not given) ?
A. -10.3

Q. Could you share which cytotoxicity at 10 µM value was measured for CC(C)CN1CCc2[nH]cnc2C12CCN(C(=O)c1ccc[nH]1)CC2 ?
A. 14.7

Q. Could you share which cytotoxicity at 10 µM value was measured for CS(=O)(=O)N1CCN2C(=O)N(C3CCOCC3)C[C@H]2C1 ?
A. 5.76

Q. Could you share which cytotoxicity at 10 µM value was measured for NCc1cc(-c2ccccc2)n2nccc2n1 ?
A. -14.7

Q. Could you share which cytotoxicity at 10 µM value was measured for c1cc(CN2CCC3(CCOCC3COCC3CC3)CC2)ccn1 (stereo not given) ?
A. -9.52

Q. Could you share which cytotoxicity at 10 µM value was measured for Cc1nc(CN2CCCC(NCCOCC(F)(F)F)C2)no1 (stereo not given) ?
A. -11.1

Q. Could you share which cytotoxicity at 10 µM value was measured for CCOCC1CN(C(=O)N(C)C)Cc2nnn(CC3CC3)c21 (stereo not given) ?
A. -6.26

Q. Could you share which cytotoxicity at 10 µM value was measured for CCc1nnc(CNC(=O)c2cc3c(nc2OC)CCC3)s1 ?
A. 0.156

Q. Could you share which cytotoxicity at 10 µM value was measured for CCCN(CCC)c1ncc(S(=O)(=O)c2ccc(C)cc2)c(N)n1 ?
A. 3.19

Q. Could you share which cytotoxicity at 10 µM value was measured for CN(C)c1cnnc(N2CCN(C(=O)Cc3ccccc3)CC2)c1 ?
A. 5.5

* * *

- test-description: Toxicity liver stage against HepG2, at 10uM
- Assay type: cell-based
- Design: test concentration 10 uM, cell line HepG2-A16-CD81EGFP
- study-conditions: human, HepG2-A16-CD81EGFP cells; read-out: INHIBITION
Measured cytotoxicity at 10 µM by item
Reply with a number, then the unit it belongs to.

Known cytotoxicity at 10 µM results, listed for orientation:
> print(dat)
                                   compound             value.type  obs.value
1        CCc1nsc(N2CCCN(C(=O)c3ccsc3)CC2)n1  cytotoxicity at 10 µM      5.73%
2  CCN1CC2(CC1=O)CN(Cc1cccs1)CCN(C(=O)C(C)C)C2 (configuration not stated)  cytotoxicity at 10 µM     -13.9%
3  CC(C)Cc1nc(CN2CC(=O)N(C)c3ccccc3C2=O)no1  cytotoxicity at 10 µM      -6.7%
4  Cn1cc(CN2CCc3c(cnc(-c4ccccc4)c3C(=O)O)C2)cn1  cytotoxicity at 10 µM       4.2%
5  CS(=O)(=O)NC1CCCN(c2ccc(C#N)cn2)C1 (configuration not stated)  cytotoxicity at 10 µM     -12.7%

Q. Could you share which cytotoxicity at 10 µM value was measured for CC1(C)Cc2c(cnn2-c2ccccc2)C(NC2CCSCC2)C1 (configuration not stated) ?
A. -186%

Q. Could you share which cytotoxicity at 10 µM value was measured for CCC(CC)C(=O)N1CCOC2(CNC2)C1 ?
A. -0.184%

Q. Could you share which cytotoxicity at 10 µM value was measured for CN(C)c1ccc(CNC(=O)c2ccc(Cl)cc2F)cc1 ?
A. -8.33%

Q. Could you share which cytotoxicity at 10 µM value was measured for CC(=O)N1CC(c2ccnc(Nc3nccs3)n2)C1 ?
A. 3.23%

Q. Could you share which cytotoxicity at 10 µM value was measured for Cn1ccc(C(=O)NCC2(O)CCN(c3cnccn3)C2)n1 (configuration not stated) ?
A. 3.45%

Q. Could you share which cytotoxicity at 10 µM value was measured for CCc1nnc2n1CCN(C(=O)c1ccc(C)c(S(N)(=O)=O)c1)C2 ?
A. -4.55%

Q. Could you share which cytotoxicity at 10 µM value was measured for CN(C)c1nccnc1C1CCN(c2cnccn2)CC1 ?
A. 4.58%

* * *

- test-description: Toxicity liver stage against HepG2, at 10uM
- Type: cell-based
- Parameters: test concentration 10 uM, cell line HepG2-A16-CD81EGFP
- study-conditions: human, HepG2-A16-CD81EGFP cells; read-out: INHIBITION
Measured cytotoxicity at 10 µM by item
Reply with a number, then the unit it belongs to.

Q. Could you share which cytotoxicity at 10 µM value was measured for CCCNC(=O)CCNC(=O)N1CCc2c(F)ccc(F)c2C1 ?
A. -9.91%

Q. Could you share which cytotoxicity at 10 µM value was measured for Cc1cccc(Oc2nccnc2C2CCN(C(=O)C(C)(C)N)CC2)c1 ?
A. -9.44%

Q. Could you share which cytotoxicity at 10 µM value was measured for CCCS(=O)(=O)N1C[C@@H](Oc2ccccn2)[C@H]2OCCC[C@H]21 ?
A. 0.516%

Q. Could you share which cytotoxicity at 10 µM value was measured for CC(C)N1CCOCC2(CN(Cc3ccccn3)CCO2)C1 (stereo not drawn) ?
A. 6.46%

Q. Could you share which cytotoxicity at 10 µM value was measured for COC(=O)c1cccc(S(=O)(=O)NC(=O)c2cccc(OC)c2OC)c1 ?
A. 12.2%

Q. Could you share which cytotoxicity at 10 µM value was measured for Cc1nc(CNC2CCc3ncnn3C2)oc1C (stereo not drawn) ?
A. -3.86%

Q. Could you share which cytotoxicity at 10 µM value was measured for CCOCCn1nc(C)cc1C(=O)N1CCCC[C@H](N(C)C)C1 ?
A. -3.68%

Q. Could you share which cytotoxicity at 10 µM value was measured for Cc1nn(C2CCS(=O)(=O)C2)c(O)c1Cc1ccccc1Cl (stereo not drawn) ?
A. -45.7%

Q. Could you share which cytotoxicity at 10 µM value was measured for COC(=O)CCCN(C)C(=O)c1cc(F)cc2[nH]cnc12 ?
A. -2.23%

Q. Could you share which cytotoxicity at 10 µM value was measured for CN(C)C1CCN(Cc2cnc(S(C)(=O)=O)n2CC2CCCCC2)C1 (stereo not drawn) ?
A. 0.83%

Q. Could you share which cytotoxicity at 10 µM value was measured for CN(C)c1nc2c(c(NCc3cc(O)ncn3)n1)CCCC2 ?
A. -12.4%

Q. Could you share which cytotoxicity at 10 µM value was measured for CN(C)S(=O)(=O)c1csc(C(=O)N2CCSCC2)c1 ?
A. -51.6%

Q. Could you share which cytotoxicity at 10 µM value was measured for Cc1cc(C(=O)Nc2n[nH]c(C3CC3)n2)c2c(C)nn(C)c2n1 ?
A. 0.583%

Q. Could you share which cytotoxicity at 10 µM value was measured for Cc1cc(NC(=O)NCC(C)O)n(C)n1 (stereo not drawn) ?
A. 1.69%

Q. Could you share which cytotoxicity at 10 µM value was measured for c1cc2n(n1)CC(CNCc1ccc(OCC3CC3)nc1)CN2 (stereo not drawn) ?
A. -3.97%

Q. Could you share which cytotoxicity at 10 µM value was measured for CCCN1C(=O)c2ccccc2C1OC (stereo not drawn) ?
A. -10.1%

Q. Could you share which cytotoxicity at 10 µM value was measured for Cc1ccsc1C(=O)NCc1ccnc(N2CCN(C)CC2)c1 ?
A. -8.6%
